TEAD2 ΔTm values for the compounds below.
- EXPERIMENTAL TARGET: UniProt:Q15562
- Sequence (Q15562 whole entry, species assumed): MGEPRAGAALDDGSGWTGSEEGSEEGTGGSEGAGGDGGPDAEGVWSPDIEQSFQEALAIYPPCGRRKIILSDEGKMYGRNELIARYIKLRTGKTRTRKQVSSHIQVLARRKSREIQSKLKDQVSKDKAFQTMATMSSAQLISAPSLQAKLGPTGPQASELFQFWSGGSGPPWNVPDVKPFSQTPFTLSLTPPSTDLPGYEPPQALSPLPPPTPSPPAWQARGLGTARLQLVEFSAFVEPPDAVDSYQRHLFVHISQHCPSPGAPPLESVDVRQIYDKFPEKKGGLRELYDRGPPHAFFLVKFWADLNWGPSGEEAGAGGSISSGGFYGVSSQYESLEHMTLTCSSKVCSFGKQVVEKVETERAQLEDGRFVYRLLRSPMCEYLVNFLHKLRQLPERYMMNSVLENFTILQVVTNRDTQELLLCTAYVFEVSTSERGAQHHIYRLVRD
- EXPERIMENT NOTES: Thermal shift assay TEAD2
- Type: binding
- Protocol: Example B: Thermal Shift Assay 1) Prepare a fresh dilution of Protein Thermal Shift™ Dye (Applied Biosystems, 1000×) to 8× by […]. 2) To ensure the same DMSO concentration, the compounds were diluted as follows: Prepare 10 mM stock solution of compounds; The final DMSO concentration was 0.1% 10 μM: Diluting stock solution to 100 μM by using PBS. 1 μM: Diluting stock solution to 1 mM by using DMSO, then dilute to 10 μM by using PBS. […]
Only the number, expressed in °C, is required.

Previously resolved entries follow.
Cn1cc2nc(Oc3ccc(C(F)(F)F)cc3)cc([C@@H]3C[C@H]3C(=O)N3C[C@@H]4C[C@H]3CO4)c2n1 (single isomer, unassigned) [Example 120]	6.5
Cc1ccc2c(c1)c(C1C[C@H]1C(=O)O)cn2-c1ccc(C(F)(F)F)cc1 (mixture of isomers) [Example 21]	6.7

Now for the compound whose TEAD2 ΔTm we want.
Indicate the recorded TEAD2 ΔTm value for this compound: Cn1cc2cc(Oc3ccc(C(F)(F)F)cc3)cc([C@@H]3C[C@H]3C(=O)N3CC[C@H](O)[C@@H](O)C3)c2n1 (single isomer, unassigned) [Example 75a] 12.2
